I'd be grateful if you could share measured IC50 for these entries.
ASSAY SYSTEM: UniProt:P04406
Sequence (P04406 whole entry): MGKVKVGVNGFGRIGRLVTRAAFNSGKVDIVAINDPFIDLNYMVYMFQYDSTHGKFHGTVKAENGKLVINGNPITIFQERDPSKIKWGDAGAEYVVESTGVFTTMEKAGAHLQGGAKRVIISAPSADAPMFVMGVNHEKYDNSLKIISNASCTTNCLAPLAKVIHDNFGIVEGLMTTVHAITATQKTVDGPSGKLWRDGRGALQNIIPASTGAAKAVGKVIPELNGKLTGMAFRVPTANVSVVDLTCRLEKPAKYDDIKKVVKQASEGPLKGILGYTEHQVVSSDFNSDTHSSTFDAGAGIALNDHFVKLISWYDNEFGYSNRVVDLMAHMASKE

Query: Tell me measured IC50 for Cn1nc(-c2ccc(F)cc2)cc1C(=O)O please.
Result: > 100 µM (not active)

Query: Tell me measured IC50 for O=C(O)CSc1nc2ccc(Br)cc2o1 please.
Result: > 100 µM (not active)

Query: Tell me measured IC50 for O=C1c2ccccc2C(=O)N1c1nnc(-c2ccc(Cl)cc2)[nH]1 please.
Result: > 100 µM (not active)

Query: Tell me measured IC50 for O=C(NCCO)c1cc(-c2ccc(Cl)cc2Cl)n[nH]1 please.
Result: > 100 µM (not active)

Query: Tell me measured IC50 for COc1cccc(Cc2nnc(N3C(=O)[C@H]4CCCC[C@H]4C3=O)[nH]2)c1 please.
Result: > 100 µM (not active)
